Catalogue of molecules with associated log10 MIC
Test system: E. faecalis ATCC 29212 (HAV#005)
testName: MIC by broth microdilution (CLSI)
Format: cell-based
conditionsUsed: Enterococcus faecalis, ATCC29212, 24 h, HAV#005, ATCC 29212; CaMHB, 24 h incubation; read-out: MIC E. faecalis ATCC 29212
Counter-ions that a name gives are not always drawn.
Quick note: numbers are log10 of MIC, with µg/mL as the unit.

>  <molecule>
CC(C)C[C@@H]1CCO[C@@H]2[C@H](CN[C@@H]2C(=O)N[C@@H]2C/C=C\C[C@@H](c3c[nH]nn3)S[C@H]3O[C@H]2[C@H](O)[C@H](O)[C@H]3O)C1 [FSA1607090, formate salt]

>  <observedMeasurement>
1.51

$$$$
>  <molecule>
CC(C)C[C@@H]1CCO[C@@H]2[C@H](CN[C@@H]2C(=O)N[C@@H]2C/C=C\C[C@@H](c3cn(-c4ccccc4)nn3)S[C@H]3O[C@H]2[C@H](O)[C@H](O)[C@H]3O)C1 [FSA1607075, formate salt]

>  <observedMeasurement>
0.30

$$$$
>  <molecule>
CC(C)C[C@@H]1CCO[C@@H]2[C@H](CN[C@@H]2C(=O)N[C@H]2[C@H]3O[C@H](S[C@H](c4cn(-c5cc(F)c(F)cc5F)nn4)C/C=C\[C@H]2C)[C@H](O)[C@@H](O)[C@H]3O)C1 [FSA1609051, formate salt]

>  <observedMeasurement>
-0.60

$$$$
>  <molecule>
CC(C)C[C@@H]1CCO[C@@H]2[C@H](CN[C@@H]2C(=O)N[C@@H]2C/C=C\[C@@H](CO)CS[C@H]3O[C@H]2[C@H](O)[C@H](O)[C@H]3O)C1 [FSA1608024, formate salt]

>  <observedMeasurement>
0.30

$$$$
>  <molecule>
CC(C)C[C@@H]1CCO[C@@H]2[C@H](CN[C@@H]2C(=O)N[C@H]2[C@H]3O[C@H](SCCCC/C=C\[C@H]2C)[C@H](O)[C@@H](O)[C@H]3O)C1

>  <observedMeasurement>
-0.60

$$$$

Need log10 MIC, item CC(C)C[C@@H]1CCO[C@@H]2[C@H](CN[C@@H]2C(=O)N[C@@H]2C/C=C/[C@H](CO)CSC3O[C@H]2C(O)C(O)[C@H]3O)C1 (single isomer, unassigned) [FSA1608025B, formate salt] 1.51

Need log10 MIC, item CC(C)C[C@@H]1CCO[C@@H]2[C@H](CN[C@@H]2C(=O)N[C@@H]2C/C=C/[C@@H](O)CS[C@H]3O[C@H]2[C@H](O)[C@H](O)[C@H]3O)C1 [FSA1608016, formate salt] 0.90

Need log10 MIC, item CC(C)C[C@@H]1CCO[C@@H]2[C@H](CN[C@@H]2C(=O)N[C@@H]2C/C=C\[C@@H](CN3CCOCC3)CS[C@H]3O[C@H]2[C@H](O)[C@H](O)[C@H]3O)C1 [FSA1608036, formate salt] 0.00

Need log10 MIC, item CC(C)C[C@@H]1CCO[C@@H]2[C@H](CN[C@@H]2C(=O)N[C@@H]2C/C=C\C[C@@H](CN3CCCC3)S[C@H]3O[C@H]2[C@H](O)[C@H](O)[C@H]3O)C1 [FSA1606086, formate salt] 1.20

---

Catalogue of compounds with associated MIC
System: E. faecalis ATCC 29212 (HAV#005)
testName: MIC by broth microdilution (CLSI)
Type: cell-based
conditionsUsed: Enterococcus faecalis, ATCC29212, 24 h, HAV#005, ATCC 29212; CaMHB, 24 h incubation; read-out: MIC E. faecalis ATCC 29212
Structures can show the parent of a compound that is named as a salt.
Reply with just the number (in µg/mL).

Worked cases, answers included:
>  <compound>
CC(C)C[C@@H]1CCO[C@@H]2[C@H](CN[C@@H]2C(=O)N[C@@H]2C/C=C/C(CN3CCOCC3)CSC3OC2C(O)C(O)C3O)C1 (single isomer, unassigned) [FSA1608057, formate salt]

>  <assayReadout>
MIC

>  <observedMeasurement>
2

$$$$
>  <compound>
CC(C)C[C@@H]1CCO[C@@H]2[C@H](CN[C@@H]2C(=O)N[C@@H]2C/C=C/[C@@H](CO)CSC3O[C@H]2C(O)C(O)[C@H]3O)C1 (single isomer, unassigned) [FSA1608025A, formate salt]

>  <assayReadout>
MIC

>  <observedMeasurement>
4

$$$$

Lab note: next compound to report on.
Need MIC, item CC(C)C[C@@H]1CCO[C@@H]2[C@H](CN[C@@H]2C(=O)N[C@@H]2C/C=C\C[C@H](CO)S[C@H]3O[C@H]2[C@H](O)[C@H](O)[C@H]3O)C1 [FSA1606033, hydrochloride salt] 1

---

Tested on: E. coli HAV#038, ΔTolC
Structures can show the parent of a compound that is named as a salt.
assayReadout: MIC (µg/mL)
Reply with just the number (in µg/mL).

Worked cases, answers included:
>  <compound>
CC(C)C[C@@H]1CCO[C@@H]2[C@@H](C1)CN(C)[C@@H]2C(=O)N[C@H]1C2OC(SCC/C=C\[C@H]1C)C(O)C(O)C2O (single isomer, unassigned) [FSA1508001, formate]

>  <unit>
µg/mL

>  <MIC>
0.25

$$$$
>  <compound>
CC(C)C[C@@H]1CCO[C@@H]2[C@@H](C1)CN(C)[C@@H]2C(=O)N[C@@H]1C/C=C\CCS[C@H]2O[C@H]1[C@H](O)[C@H](O)[C@H]2O [FSA1508003, formate]

>  <unit>
µg/mL

>  <MIC>
0.25

$$$$
>  <compound>
CC(C)C[C@@H]1CCO[C@@H]2[C@H](CN[C@@H]2C(=O)N[C@@H]2CC/C=C\CSC3OC2C(O)C(O)C3O)C1 (stereo partly drawn) [FSA1503055, formate salt]

>  <unit>
µg/mL

>  <MIC>
16

$$$$

Given the entry CC(C)C[C@@H]1CCO[C@@H]2[C@H](CN[C@@H]2C(=O)N[C@H]2C3OC(SCC/C=C\[C@H]2C)C(O)C(O)C3O)C1 (single isomer, unassigned) [FSA1507066, formate] , what MIC was observed with E. coli HAV#038, ΔTolC? 0.125

Given the entry CC(C)C[C@@H]1CCO[C@@H]2[C@H](CN[C@@H]2C(=O)N[C@H]2[C@H]3OC(SC/C=C/CC2(C)C)[C@H](O)C(O)C3O)C1 (single isomer, unassigned) [FSA1504066A, formate salt] , what MIC was observed with E. coli HAV#038, ΔTolC? 1

Given the entry CC(C)C[C@@H]1CCO[C@@H]2[C@H](CN[C@@H]2C(=O)N[C@@H]2C/C=C\CCS[C@H]3O[C@H]2[C@H](O)[C@H](O)[C@H]3O)C1 [FSA1507013, formate] , what MIC was observed with E. coli HAV#038, ΔTolC? 0.125

Given the entry CC(C)C[C@@H]1CCO[C@@H]2[C@H](CN[C@@H]2C(=O)N[C@@H]2CC/C=C/CS[C@H]3O[C@H]2[C@H](O)[C@H](O)[C@H]3O)C1 [FSA1503054, formate salt] , what MIC was observed with E. coli HAV#038, ΔTolC? 1

Given the entry CC(C)C[C@@H]1CCO[C@@H]2[C@H](CN[C@@H]2C(=O)N[C@H]2C3OC(SCC/C=C/[C@@H]2C)C(O)C(O)C3O)C1 (single isomer, unassigned) [FSA1507068, formate salt] , what MIC was observed with E. coli HAV#038, ΔTolC? 0.5

Given the entry CC(C)C[C@@H]1CCO[C@@H]2[C@H](CN[C@@H]2C(=O)N[C@H]2[C@H]3O[C@H](SCCCCC2(C)C)[C@H](O)[C@@H](O)[C@H]3O)C1 [FSA1504068, formate salt] , what MIC was observed with E. coli HAV#038, ΔTolC? 32

Given the entry CC(C)C[C@@H]1CCO[C@@H]2[C@H](CN[C@@H]2C(=O)N[C@@H]2CCCCCS[C@H]3O[C@H]2[C@H](O)[C@H](O)[C@H]3O)C1 [FSA1503058, formate salt] , what MIC was observed with E. coli HAV#038, ΔTolC? 1

Given the entry CC(C)C[C@@H]1CCO[C@@H]2[C@H](CN[C@@H]2C(=O)N[C@@H]2CC(C)(C)/C=C/CS[C@H]3O[C@H]2[C@H](O)[C@H](O)[C@H]3O)C1 [FSA1503085, formate salt] , what MIC was observed with E. coli HAV#038, ΔTolC? 4

Given the entry CC(C)C[C@@H]1CCO[C@@H]2[C@H](CN[C@@H]2C(=O)N[C@H]2C3OC(SC/C=C\CC2(C)C)C(O)C(O)C3O)C1 (single isomer, unassigned) [FSA1504066B, formate salt] , what MIC was observed with E. coli HAV#038, ΔTolC? 32

Values compiled from patent US20250270246A1.
